tested on: Neuregulin-1 EGF-like domain; assay: binders of neuregulin-1 EGF-like domain, primary screen, biochemical, small-molecule microarray, 635 nm fluorescence (AID 1081); conditions: small-molecule microarray binding, higher = more signal;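 note: binding of the protein to compounds printed on small-molecule microarray slides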
OBSERVABLE: composite z-score
Output spec: single numeric token, no unit.

// below: answered compounds
- Cc1c(NC(=O)/C(C#N)=C/C=C/c2ccc(N(C)C)cc2)c(=O)n(-c2ccccc2)n1C: 1.17
- CO[C@H]1O[C@H](CO)[C@@H](OC(=O)Nc2ccc(C(F)(F)F)cc2)[C@H](OC(=O)Nc2ccc3c(c2)OCO3)[C@H]1OC(=O)Nc1ccc2c(c1)OCO2: 1.3
- C=CC[C@@]1(C(=O)O)N=C(c2ccc(OCCCO)cc2)O[C@@H]1c1ccccc1: 1.34

# input Please list composite z-score recorded for the compound CCCCN1CC=CC23O[C@@H]4C=CCOC(=O)[C@@H]4[C@H]2C(=O)N(C(C)CO)[C@@H]3C1=O (some centres undefined)
# output 0.745

Reference source: PubChem BioAssay
